What inhibition was measured for each of the following?
Assayed Target: Platelet-activating factor acetylhydrolase IB subunit alpha1 (Homo sapiens) (UniProt Q15102)
Sequence (Q15102 whole entry, looked up): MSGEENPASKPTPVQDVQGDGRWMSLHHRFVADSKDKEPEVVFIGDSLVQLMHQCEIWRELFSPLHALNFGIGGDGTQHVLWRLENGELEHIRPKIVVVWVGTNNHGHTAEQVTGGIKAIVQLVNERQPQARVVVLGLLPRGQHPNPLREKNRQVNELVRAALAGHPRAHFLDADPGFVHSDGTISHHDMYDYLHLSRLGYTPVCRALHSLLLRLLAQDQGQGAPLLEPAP
Procedure Text: PAFAH1B3 enzyme inhibitors, primary screen, biochemical, fluorescence polarization, human (AID 492972);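 further: 0% = enzyme with DMSO only and 100% = wells lacking PAFAH1B3 protein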
Test Parameters: recombinant PAFAH1B3, FP-rhodamine probe, at 3.39 µM, active compounds read high
The whole screen tested about 340,000 compounds, of which about 930 (0.27%) were called active. For the sample, actives were picked, then their nearest neighbours and some compounds at random.
Provide the reading as a plain figure in %.

Qu. Query: inhibition; subject: `CCOC(=O)c1[nH]c2ccccc2c1N=C(C)N(CC)CC`
Ans. 9.46

Qu. Query: inhibition; subject: CC(C)C(C(=O)NC1CCCCC1)N(CC1CCCO1)C(=O)CNS(=O)(=O)c1ccc(F)cc1 (configuration not stated)
Ans. 3.67

Qu. Query: inhibition; subject: `COc1ccc(S(=O)(=O)/N=C2\C=C(NS(=O)(=O)c3ccccc3)C(=O)c3ccccc32)cc1`
Ans. -2.66

Qu. Query: inhibition; subject: `CCN(CC(=O)Nc1c(F)cccc1F)C(=O)c1cnc(C)cn1`
Ans. -0.64

Qu. Query: inhibition; subject: `COc1ccc(NC(=O)ON=C2c3ccccc3-c3ccccc32)cc1`
Ans. 31.6

Qu. Query: inhibition; subject: `COc1ccc(-c2cc3n(n2)CCc2nc4ccccc4n2-3)cc1`
Ans. 1.18

Qu. Query: inhibition; subject: `CN1C(c2ccc(F)cc2)=CS/C1=C(/C#N)c1nnc2n1-c1ccccc1SC2`
Ans. 25.7

Qu. Query: inhibition; subject: `COCCNC(=S)Nc1cc(S(=O)(=O)N2CCOCC2)ccc1N1CCCCC1`
Ans. 7.35

Qu. Query: inhibition; subject: `O=C(Nc1nccs1)C1CCN(S(=O)(=O)c2ccc(Cl)c(C(F)(F)F)c2)CC1`
Ans. 7.86

Qu. Query: inhibition; subject: `C/C(=N\Nc1ccc(Cl)nn1)c1ccccc1O`
Ans. 4.6

Qu. Query: inhibition; subject: `c1coc(-c2nc3nc4ccccc4n3nc2-c2ccco2)c1`
Ans. 41.5

Qu. Query: inhibition; subject: `Cc1c(C(=O)O)nnn1-c1nonc1N`
Ans. 3.33

Qu. Query: inhibition; subject: `COc1ccc(C)cc1S(=O)(=O)N(CC(=O)Nc1cccc([N+](=O)[O-])c1)c1ccc(C)cc1`
Ans. -21.3

Qu. Query: inhibition; subject: COc1cccc2c1C(=O)c1c(O)c3c(c(O)c1C2=O)CC(O)(C(C)=NNC(=O)c1ccc(Cl)c(Cl)c1)CC3OC1CC(N)C(O)C(C)O1 (configuration not stated)
Ans. 44.5

Qu. Query: inhibition; subject: CC(=O)OC1CCC2(C)C(=CCC3C4CC(=O)N(O)C(=O)C4(C)CCC32)C1 (configuration not stated)
Ans. 1.29

Qu. Query: inhibition; subject: `O=C(Nc1ccc(CN2CCOCC2)cc1)c1cc(Cl)ccc1Cl`
Ans. 7.42

Qu. Query: inhibition; subject: OC(c1ccccc1)C(CN1CCOCC1)c1ccccc1 (configuration not stated)
Ans. 0.69

Qu. Query: inhibition; subject: N#CC(Cc1cc2ccccc2n1S(=O)(=O)c1ccccc1)OCc1ccccc1 (configuration not stated)
Ans. 4.5

Qu. Query: inhibition; subject: `O=c1[nH]cccc1-c1nc2ccccc2n1Cc1ccc(Cl)cc1`
Ans. 6.48

Qu. Query: inhibition; subject: `Cc1cc(OCCN2CCCC2)cc(C(C)C)c1`
Ans. 3.65

Qu. Query: inhibition; subject: `CN(C)CCN=c1cc(-c2ccccc2)oc2ccc(Cl)cc12`
Ans. 5.11

Qu. Query: inhibition; subject: `O=C1C(Cl)=C(Oc2ccccc2)C(=O)c2ccccc21`
Ans. 37.3

Qu. Query: inhibition; subject: `O=C(Nc1cccc2c1CCCC2)c1ccc(F)cc1`
Ans. 7.49

Qu. Query: inhibition; subject: C=C1c2c(Cl)ccc(O)c2C(O)=C2C(=O)[C@]3(O)C(O)=C(C(N)=O)C(=O)[C@@H](N(C)C)[C@@H]3[C@@H](O)C12 (some centres not stated)
Ans. 32.6

Qu. Query: inhibition; subject: `O=C(Nc1cccn(Cc2ccccc2Cl)c1=O)NC1CCCCC1`
Ans. -6.16

Qu. Query: inhibition; subject: `CCOC(=O)c1c(C)[nH]c2c1-c1ccccc1C(=O)C2=O`
Ans. 58.3

Qu. Query: inhibition; subject: `CCN1C(=O)[C@H]2[C@@H](c3ccc(SC4CCCCC4)c(OC)c3)N[C@@](Cc3ccccc3)(C(=O)OC)[C@H]2C1=O`
Ans. -5.41

Qu. Query: inhibition; subject: `Fc1c(F)c(C(F)(F)F)c(F)c(F)c1N1CCN(c2ccc3nnc(C(F)(F)F)n3n2)CC1`
Ans. 6.38

Qu. Query: inhibition; subject: `COc1ccc(NC(=O)CCCC(=O)c2ccccc2)cc1`
Ans. -0.24

Qu. Query: inhibition; subject: `CCOC(=O)CCCNC(=O)COC(=O)c1cc(Br)c(Br)s1`
Ans. -2.8

Qu. Query: inhibition; subject: `Cc1c2cnn(CC(=O)NCc3ccccn3)c(=O)c2c(C)n1Cc1ccc(Cl)cc1`
Ans. 0.23

Qu. Query: inhibition; subject: `O=C(NCc1cccnc1)c1ccc(CS(=O)(=O)c2ccc(Br)cc2)o1`
Ans. 2.95

Qu. Query: inhibition; subject: `COCCNC(=S)N1CCC(NC(=O)C23CC4CC(CC(C4)C2)C3)CC1`
Ans. 7.45

Qu. Query: inhibition; subject: NC(=O)[C@H]1CC2(CC(c3cccc(NC(=O)[C@H]4CCC(=O)N4)c3)=NO2)CN1C(=O)c1ccccc1C(=O)c1ccccc1 (some centres not stated)
Ans. -3.78

Qu. Query: inhibition; subject: `Oc1cccc(/C=N/Nc2ccc(Cl)nn2)c1O`
Ans. 55.2

Qu. Query: inhibition; subject: `Cn1ncc(Br)c1C(=O)NC1CCCC1`
Ans. 4.81

Qu. Query: inhibition; subject: `COc1cc(CNCCN(C)C)ccc1OCc1c(F)cccc1Cl`
Ans. 7.89

Qu. Query: inhibition; subject: CCOC(=O)C1=C(C)c2ccccc2OC1(C)C(=O)OCC (configuration not stated)
Ans. 2.09

Qu. Query: inhibition; subject: COc1ccc(NC(=O)C(Br)C(C)C)cc1 (configuration not stated)
Ans. 3.86

Qu. Query: inhibition; subject: `Cc1c(-c2ccccc2)n[nH]c1C(=O)N=Nc1c(O)[nH]c2ccccc12`
Ans. -61.7

Qu. Query: inhibition; subject: CN(C(=O)c1cccc(NC(=O)Cc2cccc(NC(=O)C3CCCN(C(=O)C4CC4)C3)c2)c1)C1CCC1 (configuration not stated)
Ans. 1.82

Qu. Query: inhibition; subject: `Cc1nnc(SCCCn2c(N3CCCCC3)nc3c2c(=O)[nH]c(=O)n3C)s1`
Ans. 5.57

###

Assayed Target: Platelet-activating factor acetylhydrolase IB subunit alpha1 (Homo sapiens)
Procedure Text: PAFAH1B3 enzyme inhibitors, primary screen, biochemical, fluorescence polarization, human (AID 492972);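 further: 0% = enzyme with DMSO only and 100% = wells lacking PAFAH1B3 protein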
Test Parameters: recombinant PAFAH1B3, FP-rhodamine probe, at 3.39 µM
About 930 (0.27%) of roughly 340,000 compounds were called active.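 How the source made its calls: active means inhibition above the screen-wide average of all tested compounds plus 3 SD (cut at about 25% in these data); inactive means the rest.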 Many of the other results were omitted from the sample, so actives are more common in it than they were.
Choose one outcome from this list and give only that: 1 for active, 0 for inactive

Qu. Tell me the assay call for CCCCNC(=O)N(O)C1N(/N=C/c2ccc(N(C)C)cc2)C(=S)SC1(C)C (stereo unspecified) please.
Ans. 1

Qu. Tell me the assay call for `Cc1cc(C(=O)N/N=C/c2ccc(O)c([N+](=O)[O-])c2)c(C)n1-c1ccc(F)cc1` please.
Ans. 0

Qu. Tell me the assay call for `CN(CC(=O)Nc1ccc(Cl)cc1)C(=O)CNC(=O)c1ccc2ccccc2c1` please.
Ans. 0

Qu. Tell me the assay call for CCOC(=O)CC(NC(=O)C1c2ccccc2Oc2ccccc21)c1ccc(C)cc1 (stereo unspecified) please.
Ans. 0

Qu. Tell me the assay call for CN(Cc1ccccc1)C(=O)C1CCCN(c2ncnc3c2nc2n3CCCCC2)C1 (stereo unspecified) please.
Ans. 0

Qu. Tell me the assay call for `CN1CCN(C(=O)c2cnn(-c3ccccc3)c2NC(=O)c2ccc([N+](=O)[O-])cc2)CC1` please.
Ans. 0

Qu. Tell me the assay call for CCCCNC(=O)N(O)C1N(/N=C/c2ccccc2O)C(=S)SC1(C)C (stereo unspecified) please.
Ans. 0

Qu. Tell me the assay call for COc1ccc(C(=O)C(C)OC(=O)c2cccc(S(=O)(=O)Nc3c(C)n(C)n(-c4ccccc4)c3=O)c2)cc1 (stereo unspecified) please.
Ans. 0

Qu. Tell me the assay call for `CCOCCCN(C)C1CCN(C(=O)c2oc3ccccc3c2NC(=O)COc2cccc(C)c2)CC1` please.
Ans. 0

Qu. Tell me the assay call for `O=C(Cn1nc([N+](=O)[O-])nc1Br)NC1CCCCC1` please.
Ans. 0

Qu. Tell me the assay call for `Cc1ccc(-c2cc(C(=O)NCc3cn(C)nc3C)c3cc(Br)ccc3n2)cc1` please.
Ans. 0

Qu. Tell me the assay call for `CC1CCN(CCCn2c(SCC(=O)NC3CCCC3)nc3ccccc3c2=O)CC1` please.
Ans. 0

Qu. Tell me the assay call for `CCOc1cccc(/C=N/N2C(=O)CSC2=S)c1O` please.
Ans. 0

Qu. Tell me the assay call for `COc1ccccc1-c1nnc2n1N=C(c1ccc(OC(F)F)c(OCC3CC3)c1)CS2` please.
Ans. 0

Qu. Tell me the assay call for `CC(C)(C)OC(=O)N1CCC(C(=O)Nc2cccc(C(=O)NCCc3ccccc3)c2)CC1` please.
Ans. 0

Qu. Tell me the assay call for `COC(=O)C1=C(C)NC(=O)/C1=C/c1ccc(CNS(=O)(=O)c2ccc(C)cc2)o1` please.
Ans. 0

Qu. Tell me the assay call for CCC(C)N1C(=S)SC(C)(C)C1N(O)C(=O)NC1CCCCC1 (stereo unspecified) please.
Ans. 0

Qu. Tell me the assay call for `CC(=O)Nc1ccc(S(=O)(=O)N2CCC(C(=O)N[C@@H](Cc3ccccc3)C(=O)O)CC2)cc1` please.
Ans. 0

Qu. Tell me the assay call for COc1ccccc1C(=O)N(Cc1ccc(C)o1)C1CCS(=O)(=O)C1 (stereo unspecified) please.
Ans. 0

Qu. Tell me the assay call for `CCCN(CCC)C(=O)C1c2ccccc2Oc2ccccc21` please.
Ans. 1

Qu. Tell me the assay call for `S=C(NCCCc1ccccc1)Nc1ccc(Br)cc1` please.
Ans. 0
